Collected protein stability index values appear next to each entry.
B1: EMD (parent)
chain: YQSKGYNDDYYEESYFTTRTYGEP

- Variants of: B1
- test details: protein stability index of a GFP-peptide fusion (GPS, HEK-293T) (PSI 1-6); higher = more stable;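 note: lentivirally expressed fusions sorted by FACS into six bins by GFP to DsRed ratio, PSI derived from sequencing read proportions per bin multiplied by bin number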
- experimental parameters: c terminus: a fixed tail appended

1. R19E; 3.12

Pending variant:
Would you mind telling me what protein stability index value was observed for "P24F" ?
1.57
